measurementNotes: Blood and brain exposure in mice (RD-2019-00100)
Assay type: in vivo
conditionsUsed: mouse, brain relative to blood; 169 mg/kg qd, 1-5 days, 3 hours after final dose
endpoint: Kp at 3 h

Task: Determine its reported Kp at 3 h: CNC(=O)c1cc(Oc2ccc3nc(N[C@@H]4CCCC[C@H]4O)sc3c2)ccn1
Output: ~0.5

---

measurementNotes: clinical
Set-up: species or system human
conditionsUsed: human, in vivo, po, 600 mg
endpoint: AUC(0-t) (µg·h/mL)
# output: bare number, implied unit µg·h/mL

Task: Determine its reported AUC(0-t): CNC(=O)c1cc(Oc2ccc3nc(N[C@@H]4CCCC[C@H]4O)sc3c2)ccn1 [BLZ945]
Output: 378

---

measurementNotes: clinical
Parameters: species or system human
conditionsUsed: human, in vivo, po, 150 mg
endpoint: Cmax
Answer format: value, then unit.

Task: Determine its reported Cmax: CNC(=O)c1cc(Oc2ccc3nc(N[C@@H]4CCCC[C@H]4O)sc3c2)ccn1
Output: 6950 ng/mL

---

measurementNotes: Blood and spinal cord exposure, 8-week SOD1G93A efficacy study
Assay type: in vivo, SOD1G93A mouse
conditionsUsed: SOD1G93A, mouse, blood, 65 mg/kg, 65 mg/kg q.d., 3 h post-dose; read-out: Blood conc.
endpoint: concentration at 3 h

Task: Determine its reported concentration at 3 h: CNC(=O)c1cc(Oc2ccc3nc(N[C@@H]4CCCC[C@H]4O)sc3c2)ccn1 [BLZ945]
Output: 29.3 µM

---

measurementNotes: clinical
Design: species or system human
conditionsUsed: human, in vivo, po, 300 mg
endpoint: AUC(0-t)
Answer format: value, then unit.

Task: Determine its reported AUC(0-t): CNC(=O)c1cc(Oc2ccc3nc(N[C@@H]4CCCC[C@H]4O)sc3c2)ccn1
Output: 203 µg·h/mL

---

measurementNotes: clinical
Set-up: species or system human
conditionsUsed: human, in vivo, po, 1200 mg
endpoint: Cmax

Task: Determine its reported Cmax: CNC(=O)c1cc(Oc2ccc3nc(N[C@@H]4CCCC[C@H]4O)sc3c2)ccn1 [BLZ945]
Output: 32700 ng/mL
